assay: splicing luciferase reporter signal modulators, primary screen, spliceosome inhibition project, cell-based, HEK293, splice +/- reporter (AID 1101); settings: luminescence, 24 h, higher = more signal, called active from +8 up or from −8 down;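 further: HEK293 cells carrying a splicing-competent luciferase reporter gene; test concentration not given here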
Please respond with reported z-score for every item in the list.
Write the value as a bare number.

Prompt: Requested field: z-score. Item: CC(=O)c1ccc(C(O)C2C=CC3C(=O)NC(=O)C3N2Nc2ccc(Cl)cc2Cl)cc1 (centres undefined)
Completion: 0.58

Prompt: Requested field: z-score. Item: COC(=O)[C@@H]1N=C(c2ccc(OCCCO)cc2)O[C@@H]1c1ccccc1CN=[N+]=[N-]
Completion: 0.0193

Prompt: Requested field: z-score. Item: C=CCOC(=O)[C@H]1[C@@H]2C(=O)O[C@@H](c3ccccc3)[C@@H](c3ccccc3)N2[C@@H](c2ccc(OCCOC(=O)[C@@H]3C[C@@H]4C(=O)N[C@@H](Cc5ccccc5)C(=O)N4[C@@H]3c3ccc(O)cc3)cc2)[C@]12C(=O)Nc1ccccc12
Completion: 0.878

Prompt: Requested field: z-score. Item: C=CCC(OC(C)=O)[C@@H]1[C@@H](N(Cc2ccc(-c3ccccc3)cc2)C(=O)c2cccc3ccccc23)c2cc(OCCCO)ccc2N1C(=O)c1ccc2ccccc2c1 (some centres undefined)
Completion: -0.686

Source: PubChem BioAssay
